I'd be grateful if you could share measured IC90 for these entries.
TARGET ENTITY: APOL1 G1 (Homo sapiens, UniProt O14791, I384M/S342G)
Sequence (O14791 28-398 S342G/I384M): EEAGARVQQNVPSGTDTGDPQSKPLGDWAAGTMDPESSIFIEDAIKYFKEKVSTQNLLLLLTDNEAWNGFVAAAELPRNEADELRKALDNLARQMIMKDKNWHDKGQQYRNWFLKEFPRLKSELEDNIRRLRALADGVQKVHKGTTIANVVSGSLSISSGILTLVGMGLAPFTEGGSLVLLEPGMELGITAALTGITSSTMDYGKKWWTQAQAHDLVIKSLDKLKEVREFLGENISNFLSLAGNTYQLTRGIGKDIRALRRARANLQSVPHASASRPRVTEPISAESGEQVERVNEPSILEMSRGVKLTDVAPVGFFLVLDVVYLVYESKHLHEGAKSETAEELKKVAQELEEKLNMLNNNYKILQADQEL
MEASUREMENT NOTES: MultiTox-Fluor Multiplex Cytotoxicity Assay, tet-inducible APOL1 G1 T-REx-HEK293 cells
Type: cell-based
Set-up: expressed in transfected cells; host or cells: T-REx HEK293, clone G1 DC3.25 (pAAVS1-Puro-APOL1 G1)
TEST CONDITIONS: HEK293, Multi-Tox Assay; APOL1 variant (G0/G1/G2) of the HEK293 cells not given; read-out: Multi-Tox Assay IC90

Need IC90, item C[C@H]1C[C@@]2(C[C@@H](c3ccon3)N1)OCCc1cc(Cl)sc12 (racemic)
< 50 nM

Do the same for C[C@H]1C[C@@]2(C[C@@H](c3cn(Cc4ccc(CO)cc4)nn3)N1)OCC(F)(F)c1cc(Cl)sc12 please
50 to 500 nM

Do the same for COCCn1cc([C@@H]2C[C@]3(C[C@H](C)N2)OCC(F)(F)c2cc(Cl)sc23)nn1 please
50 to 500 nM

Do the same for C[C@H]1C[C@@]2(C[C@@H](c3cn(Cc4cccnn4)nn3)N1)OCC(F)(F)c1cc(Cl)sc12 please
50 to 500 nM

The reported measurements were obtained from patent EP4810040A2.
